experiment: NF-kB reporter blockers in CF airway cells – cell-based, GFP fluorescence, uHTS, primary screen (AID 588850); conditions: KKLEB NF-kB-GFP reporter, PAF-induced, GFP fluorescence overnight; at 5 µM;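 also: PAF is a Pseudomonas aeruginosa culture filtrate used as stimulus; plate controls were PAF-stimulated DMSO wells for no effect and unstimulated DMSO wells for full effect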
The campaign covered roughly 360,000 compounds. About 3,100 (0.86%) were called active.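 The calls were made as follows: active = at least 50% inhibition at 5 µM, scaled per plate between neutral and stimulator controls; inactive = the rest.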 The list comes from a sample in which actives are over-represented; it also holds close analogues and randomly drawn compounds.
Would you mind answering with one of these outcomes? active, inactive

See these solved cases before continuing.
>>> group("COc1ccc(N(CC(=O)N/N=C/c2cccc3c2OCCO3)S(=O)(=O)c2ccc(NC(C)=O)cc2)cc1")
"inactive"
>>> group("Nc1ncnc2c1ncn2[C@@H]1O[C@H](C(=O)N2CCSC2)[C@@H](O)[C@H]1O")
"inactive"
>>> group("O=C(NCCCN1CCN(c2ccccc2F)CC1)C1CCC(=O)N1C1CCCCC1 (stereo not given)")
"inactive"
>>> group("CCOC(=O)c1nnn2c3ccccc3c(=O)n(C)c12")
"inactive"
>>> group("CC(=O)N1c2ccc(S(=O)(=O)NCCC(=O)N(C)C3CCCCC3)cc2CC1C (stereo not given)")
"inactive"

Prompt: Dear colleague, could you share the recorded outcome for CC(C(=O)N1CCc2ccccc21)N(C)CC(=O)Nc1ccc(F)cc1 (stereo not given) when you have a moment?
Response: inactive

Prompt: Assay outcome for C=CCOc1ccccc1CNn1c(C)n[nH]c1=S : what was it?
Response: inactive

Prompt: Given CN(CC(=O)Nc1ccc(OC(F)(F)F)cc1)C(=O)C1CCC1 , state the outcome it received in this test.
Response: inactive

Prompt: In this assay, the call recorded for Cc1cccc(N(C(=O)Cc2cccs2)C(C(=O)NCc2ccco2)c2ccncc2)c1 (stereo not given) was what?
Response: inactive

Prompt: Would you mind telling me which call this test gave CCCc1nc2c(c(=O)c3ccccc3n2C)c(=O)n1C1CCCCCC1 ?
Response: active

----------
assay: NF-kB reporter blockers in CF airway cells – cell-based, GFP fluorescence, uHTS, primary screen (AID 588850); details: KKLEB NF-kB-GFP reporter, PAF-induced, GFP fluorescence overnight; at 5 µM; active compounds read high;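 also: PAF is a Pseudomonas aeruginosa culture filtrate used as stimulus; plate controls were PAF-stimulated DMSO wells for no effect and unstimulated DMSO wells for full effect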
In all, about 360,000 compounds went through this assay and about 3,100 (0.86%) were called active. The sample holds actives, similar compounds and a random draw of the others, so the mix is not that of the screen.
reported-endpoint: inhibition (%)
Numbers only; they are read as %.

Take a look at these entries with their results.
>>> measured_value("COc1ccc(C(C(=O)NCc2ccccc2)N(Cc2cccs2)C(=O)c2cnccn2)cc1 (stereo not given)")
-3.9
>>> measured_value("COc1cccc(C(NC(C)=O)c2nc(-c3ccccc3OC)cs2)c1 (stereo not given)")
-4
>>> measured_value("CCCOc1ccc(-c2c(C(=O)N/N=C/c3ccco3)nnn2-c2nonc2N)cc1")
-21.8
>>> measured_value("COc1cc(C2c3cc4c(cc3C(O)C3COC(=O)C23)OCO4)cc(OC)c1OC (stereo not given)")
50.8

Switching to the query record.
Prompt: What inhibition value was documented for this molecule, COc1cc(C=C(OC(C)=O)c2ccc3c(c2)OCO3)cc(OC)c1OC ?
Response: -22.3

----------
Here the recorded inhibition is given for each entry.
test: NF-kB reporter blockers in CF airway cells – cell-based, GFP fluorescence, uHTS, primary screen (AID 588850); conditions: KKLEB NF-kB-GFP reporter, PAF-induced, GFP fluorescence overnight; at 5 µM; active compounds read high;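 also: PAF is a Pseudomonas aeruginosa culture filtrate used as stimulus; plate controls were PAF-stimulated DMSO wells for no effect and unstimulated DMSO wells for full effect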
Out of some 360,000 compounds screened, about 3,100 (0.86%) were called active. The full list was thinned out, with actives kept by preference.
Answer with a number only, understood to be in %.

Sample records with inhibition:
>>> measured_value("O=C(NCc1ccc(F)cc1)c1cc(C2CCCCN2C(=O)c2ccccn2)on1 (stereo unspecified)")
4.9
>>> measured_value("CS(=O)(=O)N(CC(=O)Nc1ccc(F)cc1F)c1cccc([N+](=O)[O-])c1")
10.1
>>> measured_value("OC[C@@H]1CN(Cc2ccc(-c3ccccc3)cc2)C[C@H](n2cnc3c(NC4CCCC4)ncnc32)O1")
-0.3
>>> measured_value("CC(C)Cc1nn2c(=O)cc(O)nc2s1")
-9.2
>>> measured_value("O=C(Nc1nnc(S(=O)(=O)N2CCOCC2)s1)c1cccc(Br)c1")
13
>>> measured_value("O=C(CCc1ccccc1Cl)Nc1ccc(S(=O)(=O)Nc2nccs2)cc1")
8.7
>>> measured_value("O=C(Nc1nnc(S(=O)(=O)N2CCCCCC2)s1)c1cccc(Br)c1")
57
>>> measured_value("CC(=O)c1ccc(-c2cnc3c(NC=O)cc(-c4cccc(NS(C)(=O)=O)c4)cn23)cc1")
74.7
>>> measured_value("Cc1ccc(Cc2cnc(N)s2)o1")
4.4
>>> measured_value("O=C(CCCCCCCC(=O)N1CCCCC1)N1CCCCC1")
-8.3

Okay, now this molecule:
Prompt: Looking for the measured inhibition of Cc1ccc(CCC(=O)Nc2ncc(Cc3cc(Cl)ccc3Cl)s2)o1 , can you help?
Response: 64

Source of measurements: PubChem BioAssay AID588850
